From: paper PMC10666288

Molecular target: PaPepA (Pseudomonas aeruginosa)
Sequence (Q02RY8 whole entry): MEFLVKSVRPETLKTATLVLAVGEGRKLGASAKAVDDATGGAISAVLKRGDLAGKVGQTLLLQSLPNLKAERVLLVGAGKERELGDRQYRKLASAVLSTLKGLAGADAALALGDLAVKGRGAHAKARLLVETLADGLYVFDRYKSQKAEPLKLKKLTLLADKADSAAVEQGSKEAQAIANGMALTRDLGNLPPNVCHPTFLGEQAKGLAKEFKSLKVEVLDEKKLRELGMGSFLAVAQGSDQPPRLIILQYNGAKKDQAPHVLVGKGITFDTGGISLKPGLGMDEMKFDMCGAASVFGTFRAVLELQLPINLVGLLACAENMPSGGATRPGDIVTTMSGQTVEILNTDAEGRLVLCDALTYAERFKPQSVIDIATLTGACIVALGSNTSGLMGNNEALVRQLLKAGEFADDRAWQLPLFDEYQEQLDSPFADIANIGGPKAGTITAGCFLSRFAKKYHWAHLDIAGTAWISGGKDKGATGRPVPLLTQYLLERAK
Assay: Isothermal titration calorimetry of metal binding
Set-up: GG stays after cleavage) (N); made in house; host or cells: E. coli BL21(DE3)
Settings: ITC, one binding site per monomer, 25 °C, pH 7.4; listed as Mn2+
Recorded metric: Kd
Kindly format the answer as number then unit.

Query string: Supply reported Kd belonging to this compound: [Mn+2]
Result string: 12 nM
